- MEASUREMENT_NOTES: chemical genetic growth profiling, strain panel (AID 1159580);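 further: tested at 20 µM; growth read once vehicle control cultures reached saturation at 30 °C; 1 = growth at the plate median or of vehicle wells; lower values mean less growth of the strain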
- TEST_PARAMETERS: S. cerevisiae deletion strains, growth OD, locus YIL066C, strain RNR3, active compounds read low
Out of some 5,500 compounds screened, about 2,000 (36%) were called active. Inconclusive results (about 18%) are left out. The list shows a part of the results.

STRUCTURE_AS_SMILES	normalized growth
Oc1c(Cl)cc(Cl)cc1Sc1cc(Cl)cc(Cl)c1O	1.01 (inactive)
CC(=O)c1ccc(O)c(CC=C(C)C)c1	0.945 (inactive)
CCCOc1ccc2nc(NC(=O)OC)[nH]c2c1	0.996 (inactive)
CC(=O)Oc1c(Cl)c(C)c2c(c1Cl)OC(=O)c1c(C)c(Cl)c(OC(C)=O)c(Cl)c1O2	0.965 (inactive)
CC(=O)c1cc(CC=C(C)C)c(O)c(CC=C(C)C)c1	0.965 (inactive)
COc1cc(C(C)=O)cc(OC)c1O	0.983 (inactive)

###

Examples of compounds with documented normalized growth follow.
- MEASUREMENT_NOTES: chemical genetic growth profiling, strain panel (AID 1159580);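 further: tested at 20 µM; growth read once vehicle control cultures reached saturation at 30 °C; 1 = growth at the plate median or of vehicle wells; lower values mean less growth of the strain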
- TEST_PARAMETERS: S. cerevisiae deletion strains, growth OD, locus YLR342W, strain FKS1, active compounds read low
In all, about 5,500 compounds went through this assay and about 2,000 (36%) were called active. Not shown: some 18% with an inconclusive outcome. The list shows a part of the results.
QUANTITY_KIND: normalized growth

COMPOUND	QUANTITY_KIND	EXPERIMENTAL_VALUE
CC(=O)N[C@@H](Cc1c[nH]c2ccccc12)C(N)=O	normalized growth	1.05
CC1=CC(=O)c2ccccc2C1=O	normalized growth	1.01
Cc1nc(N)cc(C[n+]2csc(CCO)c2C)n1	normalized growth	0.991
COC(=O)c1c(OC)cc2c(c1C)Oc1c(Cl)c(O)c(Cl)c(C)c1C(=O)O2	normalized growth	0.986
CCN(CC)CCOC(=O)C1(C2CCCCC2)CCCCC1	normalized growth	0.983
COC(=O)c1c(C)c2c(c(C)c1O)OC(=O)c1c(C)c(Cl)c(O)c(Cl)c1O2	normalized growth	0.971
O=C(O)c1ccccc1	normalized growth	0.972
C/C=C\C1=C(C(=O)O)N2C(=O)C(NC(=O)C(N)c3ccc(O)cc3)C2SC1 (stereo not given)	normalized growth	1
CC1=CC(=O)c2c(O)cccc2C1=O	normalized growth	0.0621
CC(C)CCCC(C)C1CCC2C3=CC[C@H]4C[C@@H](O)CC[C@]4(C)C3CC[C@@]21C (stereo not given in full)	normalized growth	0.994
COc1cc(C/C=C/c2ccccc2)c(OC)cc1O	normalized growth	0.949
CC(C)=CCc1c2c(c3occ(-c4ccc(O)c(O)c4)c(=O)c3c1O)C=CC(C)(C)O2	normalized growth	0.959
CC(N=C(NC#N)Nc1ccncc1)C(C)(C)C (stereo not given)	normalized growth	0.945
NC(=O)NC(=O)Cc1ccccc1	normalized growth	0.999
CCN(CC)CCOCCOC(=O)C1(c2ccccc2)CCCC1	normalized growth	0.987
CS(=O)(=O)Nc1ccc([N+](=O)[O-])cc1Oc1ccccc1	normalized growth	0.997
CC(C)CCCC(C)[C@H]1CCC2C3C(=O)C=C4C[C@@H](O)CC[C@]4(C)C3CC[C@@]21C (stereo not given in full)	normalized growth	1
CC(C)(C)NC[C@H](O)c1ccc(O)c(CO)c1	normalized growth	1.03
O=P1(NCCCl)OCCCN1CCCl (stereo not given)	normalized growth	0.99
CC(=O)c1cc(CC=C(C)C)c(O)c(CC=C(C)C)c1	normalized growth	1.02
CCN1CCN(C(=O)NC(C(=O)N[C@@H]2C(=O)N3[C@@H]2SC(C)(C)[C@@H]3C(=O)O)c2ccccc2)C(=O)C1=O (stereo not given in full)	normalized growth	0.991
CC(C)CCCC(C)C1CCC2C3C[C@@H](O)[C@@]4(O)C[C@@H](O)CC[C@]4(C)C3CC[C@]12C (stereo not given in full)	normalized growth	0.986
O=C(NCO)c1cccnc1	normalized growth	1.01
O=C(O)c1ccc(S(=O)(=O)N(Cl)Cl)cc1	normalized growth	0.983
COc1ccccc1OCC(O)CO (stereo not given)	normalized growth	1.02
CC(C)c1ccc2c(c1)CCC1[C@](C)(CN)CCC[C@]21C (stereo not given in full)	normalized growth	0.836
O=C(O)c1cc(O)c2c(c1)[C@@H]([C@H]1c3cc(C(=O)O)cc(O)c3C(=O)c3c(O[C@H]4O[C@H](CO)[C@@H](O)[C@H](O)[C@H]4O)cccc31)c1cccc(O[C@H]3O[C@H](CO)[C@@H](O)[C@H](O)[C@H]3O)c1C2=O	normalized growth	1.04
CCCN(CCC)S(=O)(=O)c1ccc(C(=O)O)cc1	normalized growth	0.961
N[C@@H](CCC(=O)N[C@@H](CS)C(=O)NCC(=O)O)C(=O)O	normalized growth	0.982
CCCc1cc(=O)[nH]c(=S)[nH]1	normalized growth	1.03
CNNC	normalized growth	1.01
CC[N+](C)(C)c1cccc(O)c1	normalized growth	1.02
CC(=O)Oc1ccc(C(c2ccc(OC(C)=O)cc2)c2ccccn2)cc1	normalized growth	1.01
C[n+]1ccccc1/C=N/O	normalized growth	1.02
CC(C)=CCc1c2c(c3occ(-c4ccc(O)cc4)c(=O)c3c1O)C=CC(C)(C)O2	normalized growth	0.775
NCC(N)C(=O)c1ccccc1 (stereo not given)	normalized growth	1.01
Nc1ccc(S(=O)(=O)NC(=O)c2ccccc2)cc1	normalized growth	0.998
CN[C@@H]1[C@H](O)[C@H](NC)[C@H]2O[C@@]3(O)C(=O)C[C@@H](C)O[C@H]3O[C@@H]2[C@H]1O	normalized growth	1.02
C=C1C[C@]23C[C@@]1(O)CC[C@H]2[C@@]12C=C[C@H](O)[C@@](C)(C(=O)O1)[C@H]2[C@@H]3C(=O)O	normalized growth	1.03
Cc1scc2c1N(C(=O)CN1CCN(C)CC1)c1ccccc1NC2=O	normalized growth	0.98
CC(C)CCCC(C)[C@H]1CCC2C3CC=C4CC(=O)CC[C@]4(C)C3CC[C@@]21C (stereo not given in full)	normalized growth	1.01
CC(C)=CC1C(C(=O)O)C1(C)C (stereo not given)	normalized growth	0.959
Cc1cc(=O)[nH]c(=S)[nH]1	normalized growth	0.985
Cc1c(C)c2c(c(C)c1O)CCC(C)(CCCC(C)CCCC(C)CCCC(C)C)O2 (stereo not given)	normalized growth	0.978
CC(C)NCC(O)COc1ccc(COCCOC(C)C)cc1 (stereo not given)	normalized growth	1
